Data credit: ChEMBL document CHEMBL1201862

Test system: OVCAR-8
Assay: NCI tumour cell line growth inhibition, 48 h
Active and inactive are the calls of the source. Cut-off read from the data, not from the text of the source: active = GI50 up to about 1.1 µM and inactive = higher.
Labels: yes for active, no for inactive

1) CO[C@@H]1C[C@H](OC(N)=O)[C@@H]2C=C[C@@H]3/C=C(C)/C=C/[C@@H](C)[C@H](/C(C)=C/[C@@H](C)NC(C)=O)OC(=O)/C=C/C=C(C)\C=C\[C@]3(C)[C@@H]2C1 [SUPERSTOLIDE B]: yes
2) Clc1ccc(SCCSCCCCCCCCCCSCCSc2ccc(Cl)cc2)cc1: no
3) Cc1ccc(SCN2CCCCC2)cc1.O=C(Cl)c1ccc([N+](=O)[O-])cc1: no
4) COP(=O)(Cc1ccccc1)Cc1ccccc1: no
5) COC1OC2COC(c3ccccc3)OC2C(O)C1OC(=S)c1ccccc1 (stereo not given): no
6) C[C@@H]1[C@@H](C)C(c2ccccc2)O[Si]1(C(C)(C)C)C(C)(C)C (stereo not given in full): no
7) CN1CCN(C(=S)N(C(=O)c2cccs2)c2ccccc2)CC1: no
8) Cc1nc(O)nc(N/N=C/c2ccc(Cl)cc2)c1C(=O)NC(C)(CO)CO: no
9) O=P1(Oc2ccc(Cl)cc2Cl)Oc2cc3ccccc3cc2O1: no
10) COc1ccc2nc3cccc([N+](=O)[O-])c3c(NCCO)c2c1: yes
11) CC1OC(OC2C(O[C@@H]3C[C@@H]4CC[C@@H]5[C@H](CC[C@]6(C)[C@@H]7[C@H](C[C@@H]56)O[C@]5(CC[C@@H](C)CO5)[C@H]7C)[C@@]4(C)C[C@H]3O)OC(CO)C(OC3OC(CO)C(O)C(O)C3O)C2O)C(O)C(O)C1O (stereo not given in full): no
12) CCCCc1c2c(nc3c1CCCC3=O)CCCC2: no
13) NCCCN(CCCCN(CCCN)C(=O)OCc1ccccc1)C(=O)OCc1ccccc1: no
14) CC(=O)OCC1(CNc2nc(N)ncc2C#N)CC(CCc2ccccc2)C1 (stereo not given): no
15) O=C(CNc1cccc(Cl)c1)Nn1c(-c2ccccc2)nc2ccccc2c1=O: no
16) O=P(O)(O)CN1CCNCCN(CP(=O)(O)O)CCN(CP(=O)(O)O)CCNCC1: no
17) Cc1[nH]n(-c2nc(-c3ccccc3)cc(=O)[nH]2)c(=O)c1CCO: no
18) CC(=O)NC1=CC(=O)C=C(Cl)C1=O: no
19) CO/N=C(\C)c1cccc(Nc2nc3ccccc3c3occc23)c1: no
20) N#CCCSC1SC(=C2SC3=C(SCCS3)S2)SC1SCCC#N (stereo not given): no

###

Test system: HCT-15
Listed here: items and their measured log10 GI50.
attribute-measured: log10 GI50 (log10 of the value in µM)

1. CO/N=C(\C)c1cccc(Nc2nc3ccccc3c3occc23)c1: 1.02
2. O[C@]12C=C(c3nccc4c3[nH]c3ccccc34)[C@@H]3CCN(CCCC/C=C\CC1)C[C@@]31CC3/C=C\CCCCN3[C@H]12 (some centres not stated): -0.54
3. COc1cc2c(c3nc4ccccc4nc13)-c1ccc(SC)c(=O)cc1[C@@H](NC(C)=O)CC2: 0.09
4. CCC(=O)/C=C/c1ccccc1: 1.56
5. O=c1oc2c3ccc4ccccc4c3n(CCN3CCCCC3)c2c2ccccc12: 1.58
6. CC1=CC(=O)c2ccc(C)cc2C1=O [CHIMAPHILIN]: 1.10
7. CCOC(=O)COc1cc(-c2ccccc2F)nc2cc3c(cc12)OCO3: 1.60
8. CC1CN=C(N(C)C(=O)Nc2ccc(Cl)cc2)S1 (configuration not stated): -0.08
9. O=C(O)CO[C@@]12C#C/C=C\C#C[C@@H]3N(C(=O)Oc4ccccc4)c4ccccc4[C@]14O[C@@]34CCC2: 0.93
10. CCCCCCCCCCCCOCCCCCCCCC/C=C/c1ccc2c(c1)OCCOCCOCCOCCO2: 1.66
11. C/C(=C1/N=C(c2ccccc2)OC1=O)c1ccccc1: 2.00

###

Tested on: CCRF-CEM
Test: NCI tumour cell line growth inhibition, 48 h
Active and inactive are the calls of the source. No stated cut-off is given here; in the data, active = GI50 up to about 1.1 µM and inactive = higher.
Labels: active, inactive

1. C=C1CCc2occ(C)c2C2C1C1=C(CC(C)C1=O)C1OC12C (stereo unspecified): inactive
2. Nn1c(Sc2nc3ccccc3c(=O)n2N)nc2ccccc2c1=O: active
3. Cc1ccc(/C=N/n2c(=O)[nH]c3ccccc3c2=O)cc1: inactive
4. COc1cc2c(cc1OC)C(Cl)C(c1ccc(Cl)cc1)=C2Cl (stereo unspecified): inactive
5. Clc1ccc(SCCSCCCCCCCCCCSCCSc2ccc(Cl)cc2)cc1: inactive
6. Cc1ccc(Oc2ccccc2N)cc1: inactive

###

Test system: SNB-78
Test: NCI tumour cell line growth inhibition, 48 h
Activity calls are given as the source filed them. No stated cut-off is given here; in the data, active = GI50 up to about 1.1 µM and inactive = higher.
Outcomes: active, inactive

1) CC1=C(O)C(=O)[C@@H]2O[C@@H]2C1=O: inactive
2) Cc1[nH]c2ccccc2c1CC/C(=N\Nc1ccccc1)c1ccccc1: inactive
3) CCCCCCCCCOC(=S)NCCCCC: inactive
4) CCNC(=O)O/N=C1/C=C2CC[C@@H]3C(CC[C@@]4(C)C3CC[C@@H]4OC(=O)NCC)[C@@]2(C)CC1 (stereo not given in full): inactive
5) C=C1CC(OC)(C(O)C(=O)N[C@H]2OCO[C@H]3C2O[C@H](C[C@H](O)COC)C(C)(C)C3OC)O[C@H](C)[C@@H]1C (stereo not given in full): active
6) Cc1c(Cl)cccc1NC(=O)CC1C(=O)Nc2ccccc2S1(=O)=O (stereo not given): inactive
7) COc1cc2c(cc1OC)C(Cl)C(c1ccc(Cl)cc1)=C2Cl (stereo not given): inactive
8) CN(C)CC1CCCC/C1=N/OC(=O)c1ccc(Cl)cc1 (stereo not given): inactive
9) CC(=O)OCC1=C(CCC#N)N2C(=O)C(NC(=O)Cc3cccs3)C2[S+]([O-])C1 (stereo not given): inactive
10) Cc1c2cnccc2c(C)c2c1c1ccccc1n2CCCN: active
11) CC(=O)c1ccc(NC(=O)C(=O)C(C#N)CC(C)(C)C=O)cc1 (stereo not given): inactive
12) C=CCNC(=S)N1c2ccccc2NC(=O)CC1C (stereo not given): inactive
13) CCOc1c(Cc2ccccc2)c(=O)n2c3ccccc3n3c(=O)n(C)c(=O)c1c23: inactive
14) CCN1CCC(O)(/C=C/c2ccc(Cl)cc2)C(C(=O)/C=C/c2ccc(Cl)cc2)C1 (stereo not given): inactive
15) N#CC(C(=O)C(=O)Nc1ccc(Cl)c(Cl)c1)c1ccc(Cl)cc1 (stereo not given): inactive
16) CC(=O)OCCOCNC(=S)N/N=C/c1cc([N+](=O)[O-])ccc1O: inactive
17) CSCC[C@@H](NC(=O)[C@H](CC(C)C)NC(=O)C(Cc1cnc[nH]1)NC(=O)CNC(=O)[C@@H](NC(=O)[C@H](C)NC(=O)[C@H](Cc1c[nH]c2ccccc12)NC(=O)[C@H](CCC(N)=O)NC(=O)[C@@H](N)CC(N)=O)C(C)C)C(N)=O (stereo not given in full): inactive
18) CC(C)N(C(=O)C12C3C4C5(C#N)C3C1(C#N)C5C42C#N)C(C)C (stereo not given): inactive
19) Cn1c(=O)c2nc(-c3ccc(Cl)cc3)oc2n(C)c1=O: inactive
20) O=C(CSSCC(=O)Nc1ccc(Br)cc1)Nc1ccc(Br)cc1: inactive

###

Entries and their GI50 values follow.
Tested on: SNB-19
Assay: NCI tumour cell line growth inhibition, 48 h
Active and inactive are the calls of the source. Cut-off read from the data, not from the text of the source: active = GI50 up to about 1.1 µM and inactive = higher.
attribute-measured: GI50

1. Cc1cc(S(=O)(=O)Nc2nnc3c(Cl)cc(C(F)(F)F)cn23)c(S)cc1Cl: 25.1 µM (inactive)
2. Cc1ccccc1NC(=O)CSc1nnc(-c2ccc(/N=C\c3ccc(Cl)cc3)cc2)o1: > 100 µM (inactive)
3. Fc1ccc(Nc2nc(Cl)c3nc[nH]c3n2)cc1Cl: > 100 µM (inactive)
4. CC1SC(=O)SC1C (configuration not stated): > 100 µM (inactive)
5. CCOP(=O)(OCC)/C(C#N)=C/c1cccn1C: > 100 µM (inactive)
6. CC(C)=CC[S+]([O-])c1ccccc1NC1=CC(=O)CC(C)(C)C1 (configuration not stated): > 100 µM (inactive)
7. Cc1ccc(Cc2n[nH]c(=O)[nH]2)cc1: > 100 µM (inactive)
8. COC(c1cccc(C(O)(C(F)(F)F)C(F)(F)F)c1)(C(F)(F)F)C(F)(F)F: 19.4 µM (inactive)
9. N#CCCSC1SC(=C2SC3=C(SCCS3)S2)SC1SCCC#N (configuration not stated): > 100 µM (inactive)
10. CC(O)/C=C/C(CCC(C)CO)C(C)C (configuration not stated): > 100 µM (inactive)
11. COP(=O)(Cc1ccccc1)Cc1ccccc1: > 10 µM (inactive)
12. CCOC(=O)NNC(=O)NCc1cccc(CNC(=O)NNC(=O)OCC)c1: > 100 µM (inactive)
